target: T1, recombinant BACE1 (BACE1 extracellular domain, R&D Systems Cat#931-AS) (UniProt P56817 22-457); experiment: SPR Biacore
T1 construct: extracellular domain; also called BACE1 extracellular domain protein
T1 sequence (P56817 22-457): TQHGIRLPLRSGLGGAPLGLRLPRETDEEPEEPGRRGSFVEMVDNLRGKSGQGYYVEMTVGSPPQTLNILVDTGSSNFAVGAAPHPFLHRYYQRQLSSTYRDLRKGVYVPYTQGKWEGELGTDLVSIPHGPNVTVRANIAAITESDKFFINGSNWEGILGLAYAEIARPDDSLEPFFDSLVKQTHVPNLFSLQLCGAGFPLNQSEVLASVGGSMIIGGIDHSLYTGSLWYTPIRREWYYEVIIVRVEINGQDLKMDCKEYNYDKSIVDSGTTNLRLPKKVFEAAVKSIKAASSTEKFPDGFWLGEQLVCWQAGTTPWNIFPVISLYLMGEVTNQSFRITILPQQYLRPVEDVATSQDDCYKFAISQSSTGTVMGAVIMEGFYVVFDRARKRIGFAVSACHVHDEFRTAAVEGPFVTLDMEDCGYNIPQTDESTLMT
Could you please report measured Kd for the items listed next?
Numbers only, in nM.

>  <Binder>
2H8.08 (antibody, human IgG1, V domains shown, human IgG1/kappa; also called 2H8_HCvar2 + 2H8_LCvar2) VH: EVQLQQPGTELVRPGTSVKLSCKASGYTFTNYWMHWIKQRPGQGLEWIGMIDPSDTYTKFNQNFKGKATLTVDTSSSTAYMQLNSLTSEDSAVYYCARSGVAFPYWGQGTTVTVSS VL: DIVMTQSQKFMSTSVGDRVSVTCKASQNVGTNVAWYQQKPGQSPKALIYSASHRYSGVPDRFTGSGSGTDFTLTISNVQSEDLAEYFCQQYNSYMYTFGGGTKLEIK

>  <Endpoint Result>
20.9

$$$$
>  <Binder>
2H8.15 (antibody, human IgG1, V domains shown, human IgG1/kappa; also called 2H8_HCvar3 + 2H8_LCvar3) VH: EVQLQQSGAELVRPGTSVKLSCKASGYTFTSYWIHWVKQRPGQGLEWIGMIDPSDSYTKYNQKFKDKATLTVDTSSSTTYMHLSSLTSEDSAVYYCARSGVAFPYWGQRTLVTVSA VL: DIQMTQSQKFMSTSIGDRVSVTCKASQNVGTNVAWYQQKPGQSPKSLIYSASHWYSGVPDRFTGSGSGTDFTLTISNVQSEDLAEYFCQQYNSYPYTFGGGTKLEIK

>  <Endpoint Result>
22.8

$$$$

Q: Record request: Kd value, item 2H8.34 (antibody, human IgG1, V domains shown, human IgG1/kappa; also called 2H8_HCvar4 + 2H8_LCvar6) VH: EIQLQQSGTELVRPGTSVKLSCKASGYTFTNYWMHWVKQRPGQGLEWIGMIDPSAAYTNYNQNFKGKATLTVDTSSGTAYMQLSSLTSEDSAVYYCARSGVAFPYWGQGTTVTVSS VL: DIQMTQSQKFMSKSVGDRVSVTCKASQNVGSNVAWYQQKSGQSPKSLIYSASHRYSGVPDRFTGSGSGTDFTLTISNVQSEDLADYFCQQYNSYPYTFGGGTRLEIK
Result: 25.5

Provenance of the data: patent US20210070881A1
